experiment: differential killing of epithelial or mesenchymal cells, primary screen, imaging, PC-3E GFP, TEM4-18 mCherry, co-culture (AID 1345086); conditions: imaging cell counts, measured here: epithelial PC-3E GFP cell survival, at 1 µM;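 further: cells exposed to compound for 72 h before imaging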
Tick MET if normalised cell number is 1 or greater. Tick NOT MET if normalised cell number is less than 1.

Past entries and their recorded results:
• CC(=O)OC1CCC23CC1(C)CCC2C(C)(C)CC3OC(C)=O (stereo not drawn) = MET
• COC(=O)c1c(C)cc(OC(=O)c2c(C)cc(O)c(C=O)c2O)c(C)c1O = MET
• NC(=O)c1ccc[n+]([C@@H]2O[C@H](COP(=O)([O-])OP(=O)(O)OC[C@H]3O[C@@H](n4cnc5c(N)ncnc54)[C@H](O)[C@@H]3O)[C@@H](O)[C@H]2O)c1 = MET
• O=C(O)c1cc2cc(F)ccc2[nH]1 = NOT MET
• O=[N+]([O-])c1ccc(O)c2ncccc12 = MET

## Input Determine whether this compound has normalised cell number no lower than 1: O=C1C=CC(=C(c2ccc(O)cc2)c2ccc(O)cc2)C=C1
## Output MET

## Input Determine whether this compound has normalised cell number no lower than 1: O=C1c2ccccc2C(=O)c2c(O)c(O)cc(O)c21
## Output NOT MET

## Input Determine whether this compound has normalised cell number no lower than 1: COc1ccc(C(=O)c2ccc(O)cc2)c(O)c1O
## Output NOT MET

## Input Determine whether this compound has normalised cell number no lower than 1: S=C=Nc1ccc(N=C=S)cc1
## Output MET

## Input Determine whether this compound has normalised cell number no lower than 1: C=C1CCC2C(CC2(C)C)C(=O)CCC1O (stereo not drawn)
## Output NOT MET

## Input Determine whether this compound has normalised cell number no lower than 1: CC(O)(P(=O)(O)O)P(=O)(O)O
## Output MET

## Input Determine whether this compound has normalised cell number no lower than 1: COc1cc2c(cc1OC)C1C(=O)c3c(cc4c(c3O)C=CC(C)(C)O4)OC1CO2 (stereo not drawn)
## Output MET

## Input Determine whether this compound has normalised cell number no lower than 1: COC(=O)[C@@H]1OC(=O)C2OC23[C@@]1(C)CCC1[C@]2(C)C(C[C@@H](O)[C@]13C)C(C)(C)[C@H](OC(C)=O)C[C@@H]2OC(C)=O (stereo partly drawn)
## Output MET

## Input Determine whether this compound has normalised cell number no lower than 1: CS(=O)(=O)c1ccc(C2=C(c3ccccc3)C(=O)OC2)cc1
## Output NOT MET

## Input Determine whether this compound has normalised cell number no lower than 1: CC(=O)N1CCN(c2ccc(OCC3CO[C@](Cn4ccnc4)(c4ccc(Cl)cc4Cl)O3)cc2)CC1 (stereo partly drawn)
## Output NOT MET

## Input Determine whether this compound has normalised cell number no lower than 1: CC(=O)NC(C(=O)O)C(C)(C)SN=O (stereo not drawn)
## Output MET

## Input Determine whether this compound has normalised cell number no lower than 1: COc1cc(-c2coc3cc(OCc4ccccc4)c(OC)c(O)c3c2=O)cc(O)c1OC
## Output MET

## Input Determine whether this compound has normalised cell number no lower than 1: O=C(O)c1cccnc1C(=O)O
## Output MET

## Input Determine whether this compound has normalised cell number no lower than 1: O=S(=O)(O)c1cc(I)c(O)c2ncccc12
## Output MET

## Input Determine whether this compound has normalised cell number no lower than 1: NC1(C(=O)O)CC1
## Output MET

## Input Determine whether this compound has normalised cell number no lower than 1: O=C(/C=C/C(=O)Oc1ccccc1C(=O)O)Oc1ccccc1C(=O)O
## Output MET

## Input Determine whether this compound has normalised cell number no lower than 1: CN1CC(=O)N=C1N
## Output NOT MET

----------
assay: sensitizers of A549 cells to miR-34 induction, primary screen, imaging, A549 dox-inducible miR-34, nuclei and caspase counts (AID 1347080); details: A549 miR-34 inducible, Hoechst nuclei count, 48 h; measured here: total cells with miR-34 induction; stronger effect = lower value
Labelling: cell count reported below 9000 becomes 1.0; at or above becomes 0.0.

Past entries and their recorded results:
• CCCCc1cc2ccccc2c(OCCN(C)C)n1 = 1.0
• O=C(O)CCC(=O)OC[C@@H](NC(=O)C(Cl)Cl)[C@H](O)c1ccc([N+](=O)[O-])cc1 = 0.0
• CCn1c(=O)c2c(nc(C=Cc3ccc(OC)c(OC)c3)n2C)n(CC)c1=O = 1.0

## Input Field: below-cutoff. Rule: recorded cell count strictly less than 9000. Subject: CCCCC[C@@H](O)[C@H]1C(=O)O[C@H](C)[C@@H](O)/C=C/C=C/C=C/C=C/C=C(\C)[C@@H](O)C[C@H](O)C[C@H](O)C[C@H](O)C[C@H](O)C[C@H](O)C[C@@H]1O
## Output 1.0

## Input Field: below-cutoff. Rule: recorded cell count strictly less than 9000. Subject: NC(N)=NC(=O)c1nc(Cl)c(N2CCCCCC2)nc1N
## Output 1.0

## Input Field: below-cutoff. Rule: recorded cell count strictly less than 9000. Subject: COc1cc(N)c(Cl)cc1C(=O)NC1CCN(CCCOc2ccc(F)cc2)CC1OC (configuration not stated)
## Output 1.0

## Input Field: below-cutoff. Rule: recorded cell count strictly less than 9000. Subject: NC(=O)n1c(O)c(C(=O)c2cccs2)c2cc(Cl)ccc21
## Output 1.0

## Input Field: below-cutoff. Rule: recorded cell count strictly less than 9000. Subject: NCCCS(=O)(=O)O
## Output 1.0

## Input Field: below-cutoff. Rule: recorded cell count strictly less than 9000. Subject: O=C(O)CCn1c2c(c3ccccc31)C[C@H](NS(=O)(=O)c1ccc(F)cc1)CC2
## Output 1.0

## Input Field: below-cutoff. Rule: recorded cell count strictly less than 9000. Subject: CC(=O)O[C@]1(C(C)=O)CC[C@H]2[C@@H]3C[C@H](C)C4=CC(=O)CC[C@]4(C)[C@H]3CC[C@@]21C
## Output 1.0

----------
target: 6-phosphogluconate dehydrogenase, decarboxylating (Homo sapiens) (UniProt P52209); test: 6PGD enzyme inhibitors, primary screen, biochemical, human, recombinant enzyme, NADPH absorbance (AID 1159550); settings: recombinant 6PGD, NADPH absorbance 341 nm; at 10 µM; stronger effect = higher value
Sequence (P52209 whole entry, looked up): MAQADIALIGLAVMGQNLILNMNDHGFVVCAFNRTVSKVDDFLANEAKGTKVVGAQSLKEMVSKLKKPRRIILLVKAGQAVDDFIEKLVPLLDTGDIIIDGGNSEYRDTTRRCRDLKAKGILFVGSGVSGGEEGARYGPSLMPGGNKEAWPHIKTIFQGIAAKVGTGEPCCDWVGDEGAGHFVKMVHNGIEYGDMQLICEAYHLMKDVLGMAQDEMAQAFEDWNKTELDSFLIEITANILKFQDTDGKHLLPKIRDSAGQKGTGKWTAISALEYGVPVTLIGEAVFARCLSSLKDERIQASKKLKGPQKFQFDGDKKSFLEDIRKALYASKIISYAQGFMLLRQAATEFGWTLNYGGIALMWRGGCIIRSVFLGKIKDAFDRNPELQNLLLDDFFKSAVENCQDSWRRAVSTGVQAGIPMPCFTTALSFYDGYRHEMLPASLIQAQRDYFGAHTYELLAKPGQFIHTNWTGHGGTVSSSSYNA
MEASUREMENT_TYPE: inhibition (%)
The reply should contain only the number, in %.

As a guide, the following entries are already answered.
- CC(CCc1ccc(O)cc1)NCCc1ccc(O)c(O)c1 (centres undefined): 1.78
- COc1ccc2c3c1O[C@H]1C[C@@H](O)C=C[C@@]31CCN(C)C2: 6.78
- C=C(C)[C@@H]1CC[C@]2(CO)CC[C@]3(C)[C@H](CC[C@@H]4[C@@]5(C)CC[C@H](O)C(C)(C)[C@@H]5CC[C@]43C)[C@@H]12: 1.58
- COC(=O)C[C@H]1C(C)(C)[C@H](O)[C@@H]2CC3=C4CC(O)O[C@@H](c5ccoc5)[C@@]4(C)CCC3[C@]1(C)C2=O (some centres undefined): -7.8
- CCC(C)C(N)C1=NC(C(=O)NC(CC(C)C)C(=O)NC(CCC(=O)O)C(=O)NC(C(=O)NC2CCCCNC(=O)C(CC(N)=O)NC(=O)C(CC(=O)O)NC(=O)C(Cc3cnc[nH]3)NC(=O)C(Cc3ccccc3)NC(=O)C(C(C)CC)NC(=O)C(CCCN)NC2=O)C(C)CC)CS1 (centres undefined): -5.55

Summary line: COc1cc(NS(C)(=O)=O)ccc1Nc1c2ccccc2nc2ccccc12 , 6-phosphogluconate dehydrogenase, decarboxylating (Homo sapiens) (UniProt P52209), reported inhibition = -14.7

Summary line: N[C@H](C(=O)O)[C@@H]1CC(Cl)=NO1 , 6-phosphogluconate dehydrogenase, decarboxylating (Homo sapiens) (UniProt P52209), reported inhibition = 7.5

----------
test: suppressors of polyglutamine aggregation in yeast, 75Q-TubH (AID 1616); details: S. cerevisiae 75Q-TubH polyglutamine aggregation suppression; stronger effect = higher value
MEASUREMENT_TYPE: aggregation suppression score
In your answer, state the number alone without any accompanying words.

Sure, the documented aggregation suppression score for CC(=O)NCCc1c[nH]c2ccc(O)cc12 is 1.34

Sure, the documented aggregation suppression score for O=C(O)c1cccnc1C(=O)O is 1.12

Sure, the documented aggregation suppression score for O=C1c2ccc(O)c(O)c2C(=O)c2c(O)ccc(O)c21 is 0.505

Sure, the documented aggregation suppression score for CNCCc1ccccn1 is 1.84

Sure, the documented aggregation suppression score for CC(C(=O)O)c1cccc(Oc2ccccc2)c1 (configuration not stated) is 0.0306

Sure, the documented aggregation suppression score for CN[C@H](CC(=O)O)C(=O)O is 1.66

Sure, the documented aggregation suppression score for CN1CCN(C2=Nc3cc(Cl)ccc3Nc3ccccc32)CC1 is 1.14

Sure, the documented aggregation suppression score for CN(N=O)C(=O)N[C@@H]1[C@@H](O)[C@H](O)[C@@H](CO)O[C@@H]1O is 1.03

Sure, the documented aggregation suppression score for NC(=NCc1ccccc1)NC(=O)c1nc(Cl)c(N)nc1N is 1.26

Sure, the documented aggregation suppression score for CN(C(=O)CN(CCO)CC(=O)N(C)C(C)(C)Cc1ccccc1)C(C)(C)Cc1ccccc1 is 1.14

Sure, the documented aggregation suppression score for C1N2CN3CN1CN(C2)C3 is 0.744

Sure, the documented aggregation suppression score for O=C1CN(/N=C/c2ccc([N+](=O)[O-])o2)C(=O)N1 is 0.814
